List of Stabilization factor values.
- PROTOCOL_DESCRIPTION: Stabilization of various xanthates by methyl-beta-cyclodextrin at 60° C. (decomposition in water, detected by pH value and calibration curves)
- CONDITION_SET: decomposition without / with methyl-beta-cyclodextrin, 24 h at 60° C.
METRIC: Stabilization factor

INSERT INTO assay_data (compound, metric, obs_value) VALUES
  ('CC(C)OC(=S)S [Isopropyl, isopropylxanthate]', 'Stabilization factor', 20),
  ('CCCCOC(=S)S [Butyl, butylxanthate]', 'Stabilization factor', 20),
  ('CCCOC(=S)S [Propyl, propylxanthate]', 'Stabilization factor', 10),
  ('COC(=S)S [Methyl, methylxanthate]', 'Stabilization factor', 50),
  ('CCOC(=S)S', 'Stabilization factor', 10);
